FYI, the data here is from patent US20260216355A1.

# Tested on: breast cancer cells MDA-MB-231
# Assay: In vitro inhibitory activity of ADC against tumor cell growth (CCK-8), MDA-MB-231
# Format: cell-based, Human
# Test conditions: MDA-MB-231 cells, 6 days incubation
pIC50: −log10 of the molar value.
Endpoint label: pIC50

Task: Any idea what pIC50 was measured for 20-O-(IP140B-AcPEG2-Gly-Val-Ala-Gly-NHNHC)-7-(N-(tetrahydropyran-4-yl)amino)ethyl-10,11-methylenedioxycamptothecin [ADC 18] ?
Result: > 8.30
